Test system: Escherichia coli
Experiment: Antibacterial activity against Escherichia coli at 50 ug/ml
Type: functional
Conditions: read-out: DIZ
Recorded endpoint: zone of inhibition at 50 µg/mL (mm)
State the answer as a number, implicitly in mm.

1) O=C1Nc2ccccc2/C1=N/n1c(Cc2ccccc2)n[nH]c1=S
12
2) O=C1/C(=N\n2c(Cc3ccccc3)n[nH]c2=S)c2cc(Br)ccc2N1CN1CCOCC1
9
3) O=C1/C(=N\n2c(Cc3ccccc3)n[nH]c2=S)c2cc(Cl)ccc2N1CN1CCCCC1
10
4) O=C1/C(=N\n2c(Cc3ccccc3)n[nH]c2=S)c2ccccc2N1CN1CCOCC1
9
5) CCN(CC)CN1C(=O)/C(=N\n2c(Cc3ccccc3)n[nH]c2=S)c2cc(Cl)ccc21
11

With those in mind, consider the next compound.
Request: Notebook entry, Escherichia coli assay: zone of inhibition at 50 µg/mL of O=C1/C(=N\n2c(Cc3ccccc3)n[nH]c2=S)c2cc(Br)ccc2N1CN1CCCCC1 = ?
Result: 10
